Known % Ulcerogenicity relative to indomethacin of a selection of compounds
tested on: gastric mucosa of rats; assay: gastric ulcerogenic effect (Meshali's method, ulcer index by Robert's method); assay type: in vivo, rat; conditions: oral 10 mg/kg on three days, indomethacin = 100, 10 mg/kg
Enter your answer as a number in %; do not include the unit.

Illustrative cases are given below, each with its answer.
>  <compound>
Cc1nc2c(cnn2-c2ccccc2)c(=O)n1N=c1scc(-c2ccccc2)n1-c1ccccc1 [Compound 11a]

>  <experimental-result>
52.02

$$$$
>  <compound>
Cc1nc2c(cnn2-c2ccccc2)c(=O)n1N=c1scc(-c2ccccc2)n1-c1ccc(Cl)cc1 [Compound 11d]

>  <experimental-result>
59.09

$$$$
>  <compound>
Cc1nc2c(cnn2-c2ccccc2)c(=O)n1N=c1scc(-c2ccc(Cl)cc2)n1-c1ccccc1 [Compound 11c]

>  <experimental-result>
53.47

$$$$
>  <compound>
Cc1nc2c(cnn2-c2ccccc2)c(=O)n1N=C1SCC(=O)N1c1ccc(Cl)cc1 [Compound 10b]

>  <experimental-result>
46.63

$$$$

Next:
According to the records, this compound Cc1nc2c(cnn2-c2ccccc2)c(=O)n1N=c1scc(-c2ccc(Cl)cc2)n1-c1ccc(Cl)cc1 [Compound 11f] displays % Ulcerogenicity relative to indomethacin of 41.13

* * *

test system: carrageenan-induced rat paw edema; assay: carrageenan-induced rat paw edema test; type: in vivo; design: unit not given here; conditions: rats, 10 mg/kg intraperitoneally, 4 h after carrageenan, N = 6
Lab note: compare Mean increase in edema weight ± SEM against 0.9. Equal or greater, write condition met. Smaller, write condition not met.

>  <compound>
Cc1nc2c(cnn2-c2ccccc2)c(=O)n1N=c1scc(-c2ccc(Cl)cc2)n1-c1ccccc1 [Compound 11c]

>  <tested-target>
carrageenan-induced rat paw edema

>  <assigned-label>
condition not met

$$$$
>  <compound>
Cc1nc2c(cnn2-c2ccccc2)c(=O)n1N=Cc1ccc(Cl)cc1

>  <tested-target>
carrageenan-induced rat paw edema

>  <assigned-label>
condition met

$$$$
>  <compound>
Cc1nc2c(cnn2-c2ccccc2)c(=O)n1N

>  <tested-target>
carrageenan-induced rat paw edema

>  <assigned-label>
condition met

$$$$
>  <compound>
Cc1nc2c(cnn2-c2ccccc2)c(=O)n1N=c1scc(-c2ccccc2)n1-c1ccccc1 [Compound 11a]

>  <tested-target>
carrageenan-induced rat paw edema

>  <assigned-label>
condition not met

$$$$
>  <compound>
Cc1nc2c(cnn2-c2ccccc2)c(=O)n1N=C1SCC(=O)N1c1ccc(Cl)cc1 [Compound 10b]

>  <tested-target>
carrageenan-induced rat paw edema

>  <assigned-label>
condition not met

$$$$
>  <compound>
Cc1nc2c(cnn2-c2ccccc2)c(=O)n1N1C(=O)CC(=O)N(c2ccccc2)C1=S [Compound 12a]

>  <tested-target>
carrageenan-induced rat paw edema

>  <assigned-label>
condition met

$$$$
>  <compound>
Cc1nc2c(cnn2-c2ccccc2)c(=O)n1NC(=S)Nc1ccc(Cl)cc1

>  <tested-target>
carrageenan-induced rat paw edema

>  <assigned-label>
condition not met

$$$$
>  <compound>
Cc1nc2c(cnn2-c2ccccc2)c(=O)n1N=c1scc(-c2ccccc2)n1-c1ccc(Cl)cc1 [Compound 11d]

>  <tested-target>
carrageenan-induced rat paw edema

>  <assigned-label>
condition not met

$$$$
>  <compound>
Cc1nc2c(cnn2-c2ccccc2)c(=O)n1N=c1scc(-c2ccc(Br)cc2)n1-c1ccccc1 [Compound 11b]

>  <tested-target>
carrageenan-induced rat paw edema

>  <assigned-label>
condition not met

$$$$
>  <compound>
Cc1nc2c(cnn2-c2ccccc2)c(=O)n1N1C(=O)CSC1c1ccccc1 (centres unmarked)

>  <tested-target>
carrageenan-induced rat paw edema

>  <assigned-label>
condition met

$$$$

Query: // inclusive: Mean increase in edema weight ± SEM at least 0.9? input: Cc1nc2c(cnn2-c2ccccc2)c(=O)n1N=C1SCC(=O)N1c1ccccc1 [Compound 10a]
Result: condition not met

Query: // inclusive: Mean increase in edema weight ± SEM at least 0.9? input: COc1ccc2c(c1)c(CC(=O)O)c(C)n2C(=O)c1ccc(Cl)cc1 [Indomethacin, reference compound]
Result: condition not met

Query: // inclusive: Mean increase in edema weight ± SEM at least 0.9? input: Cc1nc2c(cnn2-c2ccccc2)c(=O)n1N=c1scc(-c2ccc(Cl)cc2)n1-c1ccc(Cl)cc1 [Compound 11f]
Result: condition not met

Query: // inclusive: Mean increase in edema weight ± SEM at least 0.9? input: Cc1nc2c(cnn2-c2ccccc2)c(=O)n1N1C(=O)CSC1c1ccc(Cl)cc1 (centres unmarked)
Result: condition met

Query: // inclusive: Mean increase in edema weight ± SEM at least 0.9? input: Nn1c(C=O)nc2c(cnn2-c2ccccc2)c1=O
Result: condition met

Query: // inclusive: Mean increase in edema weight ± SEM at least 0.9? input: O=c1c2cnn(-c3ccccc3)c2nc2cc3c(nn12)CCCC3
Result: condition met

* * *

reported-metric: melting point

Illustrative cases are given below, each with its answer.
>  <compound>
O=c1c2cnn(-c3ccccc3)c2nc2ccc(-c3ccccc3)nn12

>  <melting point>
118 to 119 °C

$$$$
>  <compound>
O=c1c2cnn(-c3ccccc3)c2nc2cc3c(nn12)CCCC3

>  <melting point>
142 to 145 °C

$$$$

Next:
According to the records, this compound Cc1nc2c(cnn2-c2ccccc2)c(=O)n1N=c1scc(-c2ccccc2)n1-c1ccc(Cl)cc1 [Compound 11d] displays melting point of 267 to 269 °C

Cited source: paper PMC3700072
